# Target Desc: GRK2 (Homo sapiens)
# Construct: purchased SignalChem A14-10G
# Procedure Text: ADPGlo GRK2 Inhibition Assay (Example 8)
# Format: biochemical
# Protocol Conditions: 7.5 nM GRK2, 10 μM ATP, ADP-Glo; read-out: GRK2 IC50 (nM) (Example 8)
Quantity Name: IC50 (nM)
Express your answer in nM, writing the number without its unit.

Example entries begin here.
response.value for Cn1cccc1CNC(=O)c1cccc(NCc2nnc(-c3ccncn3)n2C)c1 (field: IC50) = 9.5

Record Cn1c(CNc2cccc(C(=O)NCc3ccc(-n4nccn4)cc3)c2)nnc1-c1ccncn1 , field IC50: 2.1

Noted for Cn1c(CNc2cccc(C(=O)NCc3cc(F)cc(F)c3)c2)nnc1-c1ccncn1 : its IC50 reads 15

Continuing:
IC50 measured on C[C@@H](NC(=O)c1cccc(NCc2nnc(-c3ccncn3)n2C)c1)c1ncccc1Cl = 12

* * *

IC50: recorded values
# Target Desc: GRK2 (Homo sapiens, UniProt P25098)
# Construct: purchased SignalChem A14-10G
# Sequence (P25098 1-689): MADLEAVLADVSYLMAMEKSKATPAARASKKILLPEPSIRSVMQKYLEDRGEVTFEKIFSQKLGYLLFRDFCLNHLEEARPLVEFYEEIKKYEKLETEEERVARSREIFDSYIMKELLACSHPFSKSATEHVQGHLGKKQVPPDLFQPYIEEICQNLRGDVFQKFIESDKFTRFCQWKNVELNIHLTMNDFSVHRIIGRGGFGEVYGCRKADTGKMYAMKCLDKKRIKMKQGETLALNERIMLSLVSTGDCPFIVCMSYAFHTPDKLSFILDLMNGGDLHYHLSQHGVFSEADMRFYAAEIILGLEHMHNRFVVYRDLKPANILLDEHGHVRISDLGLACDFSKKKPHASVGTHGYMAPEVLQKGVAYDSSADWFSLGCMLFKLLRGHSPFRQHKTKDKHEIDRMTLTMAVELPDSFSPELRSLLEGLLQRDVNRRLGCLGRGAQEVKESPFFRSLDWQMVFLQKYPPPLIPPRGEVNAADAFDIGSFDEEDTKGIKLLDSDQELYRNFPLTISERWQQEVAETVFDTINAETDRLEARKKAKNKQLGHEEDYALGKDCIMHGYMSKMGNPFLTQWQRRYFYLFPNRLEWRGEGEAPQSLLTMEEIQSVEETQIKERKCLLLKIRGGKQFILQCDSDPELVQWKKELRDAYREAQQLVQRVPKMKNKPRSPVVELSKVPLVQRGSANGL
# Procedure Text: ADPGlo GRK2 Inhibition Assay (Example 8)
# Assay type: biochemical
# Protocol Conditions: ADPGlo GRK2 enzyme assay; read-out: A: Enzymatic GRK2: IC50 (nM) (Example 8)
Your answer should be a plain number; it is taken to be in nM.

Recorded results for 9 molecules are shown here.
Sure, the documented IC50 for Cc1nnc(O)c(C(C)NC(=O)c2cccc(NCc3nnc(-c4ccncn4)n3C)c2)c1C (stereo not shown) is 132

// field: IC50; key: Cn1c(CNc2cccc(C(=O)N[C@]3(c4ccccc4F)C[C@H](O)C3)c2)nnc1-c1ccncn1 ; value = 423

Looking up Cn1c(CNc2cccc(C(=O)NC3COc4cc(F)ccc43)c2)nnc1-c1ccncn1 (stereo not shown) , I found its IC50 recorded as 35.4

Looking up Cn1c(CNc2cccc(C(=O)NCc3ccccc3N3CCNCC3)c2)nnc1-c1ccncn1 , I see its IC50 listed as 65.8

molecule CC(Cc1ccccn1)NC(=O)c1cccc(NCc2nnc(-c3ccncn3)n2C)c1 (stereo not shown) , IC50 observed: 290

Record Cc1cccc2ncc(CNC(=O)c3cccc(NCc4nnc(-c5ccncc5)n4CCO)c3)n12 . Reported IC50: 5.86

IC50 reading for Cn1c(CNc2cccc(C(=O)NCc3ccccc3OCCO)c2)nnc1-c1ccncn1 : 48.9

Short answer for Cn1c(CNc2cccc(C(=O)NCc3cccnc3OC(F)F)c2)nnc1-c1ccncn1 : IC50 was 16.7

molecule Cc1cnc(CCNC(=O)c2cccc(NCc3nnc(-c4ccncn4)n3C)c2)c(C)c1 , IC50 observed: 432

Continue with the molecule presented below.
// recorded IC50 for Cn1c(CNc2cccc(C(=O)NCc3cnn(CCF)c3)c2)nnc1-c1ccncn1 : 82.9

* * *

# Target Desc: GRK2 (Homo sapiens, UniProt P25098)
# Construct: purchased SignalChem A14-10G
# Procedure Text: GRK2 Inhibition Assay (TR-FRET, Example 7)
# Format: biochemical
# Protocol Conditions: TR-FRET GRK2 enzyme assay; read-out: B: Enzymatic GRK2: IC50 (nM) (Example 7)
Quantity Name: IC50 (nM)
Give a bare numeral; the unit nM is implied.

Some entries whose results are on file:
Form: molecule = Cn1c(CNc2cccc(C(=O)N[C@H](C#N)c3ccccc3F)c2)nnc1-c1ccncn1 ; IC50 = 6.8

Lab book: IC50 of Cn1c(CNc2cccc(C(=O)N[C@@H](C#N)c3ccccc3Br)c2)nnc1-c1ccncn1 noted as 4.1

Per the records, this molecule ( Cn1c(CNc2cccc(C(=O)N[C@H]3COc4ccccc43)c2)nnc1-c1ccncn1 [drawing 850] ) has IC50 equal to 3.4

Note to self: IC50 recorded for Cn1c(CNc2cccc(C(=O)N[C@H](C#N)c3ccccc3C(F)(F)F)c2)nnc1-c1ccncn1 was 3.5

Could you now consider this next molecule?
For record [2H]C([2H])(Nc1cccc(C(=O)N[C@H]2CCOc3ccccc32)c1)c1nnc(-c2ccccn2)n1C the listed IC50 is 8.3

* * *

# Target Desc: GRK2 (Homo sapiens, UniProt P25098)
# Construct: purchased SignalChem A14-10G
# Procedure Text: ADPGlo GRK2 Inhibition Assay (Example 8)
# Assay type: biochemical
# Protocol Conditions: Enzyme Assay A, ADPGlo (Example 8); read-out: A: Enzymatic GRK2: IC50 (nM) (Example 8)
# Procedure: HTS was performed using 1 μM compound. Compounds were dissolved in 100% DMSO, serially diluted tree-fold from 100 μM concentration to 46 nM and transferred (50 nL) into assay ready plate. Materials: GRK2 was purchased from SignalChem (Cat #A14-10G, Lot #X^645-3). […] HTS protocol: Take 384 well plate with 50 nL of compound in columns 3-22/DMSO solution 1-2,23-24. […] Read plate in Luminescent modeon BMG PheraStar FSX (gain=3600). Data Analysis: Data were analyzed in GraphPad Prism 8.0.2. […]
Quantity Name: IC50 (nM)
Reply with just the number (in nM).

Entry O=C(N[C@@H]1COc2cc(F)ccc21)c1cccc(NCc2nnc(-c3ccncn3)n2CCO)c1 , IC50 reported as 22.4

Continuing:
The recorded IC50 for Cn1c(CNc2cccc(C(=O)NCc3ccc(Br)cn3)c2)nnc1-c1ccncn1 is 140

C#Cc1ccc(OS(=O)(=O)F)cc1CNC(=O)c1cccc(NCc2nnc(-c3ccncc3)[nH]2)c1 has a reported IC50 of 28.4

Per the records, this compound ( Cn1c(CNc2cccc(C(=O)NCc3nc(C4CC4)no3)c2)nnc1-c1ccncn1 ) has IC50 equal to 27

Cn1c(CNc2cccc(C(=O)N[C@H]3c4ccccc4C[C@H]3O)c2)nnc1-c1ccncn1 yielded IC50 of 7.3

Given item O=C(N[C@H]1CCOc2ccccc21)c1cccc(NCc2nnc(-c3ccncn3)n2CCO)c1 , the value recorded as its IC50 is 4.1

Reported IC50 for COc1c(C)cccc1CNC(=O)c1cccc(NCc2nnc(-c3ccncn3)n2C)c1 was 29

Recorded IC50 (compound Cn1c(CNc2cccc(C(=O)NCc3cscn3)c2)nnc1-c1ccncn1 ): 13

C[C@H](NC(=O)c1cccc(NCc2nnc(-c3ccncn3)n2C)c1)c1ccncc1 yielded IC50 of 45

Please fill in: IC50 reported for Cn1c(CNc2cccc(C(=O)NC3CCOc4cccnc43)c2)nnc1-c1ccncn1 (centres unmarked) [drawing 572] = 9.6

The recorded IC50 for entry COc1cccc(CNC(=O)c2cccc(NCc3nnc(-c4ccncn4)n3C)c2)c1F equals 10

Notebook: CCn1ncnc1CNC(=O)c1cccc(NCc2nnc(-c3ccncn3)n2C)c1 , IC50 read as 370

For record CC(NC(=O)c1cccc(NCc2nnc(-c3ccncn3)n2C)c1)c1ccc2c(c1)CC(=O)N2C (centres unmarked) the listed IC50 is 21

compound Cn1c(CNc2cccc(C(=O)NCc3ncc(Cl)cn3)c2)nnc1-c1ccncn1 , IC50 observed: 240

For reference, reported IC50 for CC(NC(=O)c1cccc(NCc2nnc(-c3ccncc3)[nH]2)c1)c1ccon1 (centres unmarked) stands at 20

Short answer for COC[C@H](NC(=O)c1cccc(NCc2nnc(-c3ccncc3)[nH]2)c1)c1ccccn1 : IC50 was 11

For this compound ( Cc1cccc(C(CO)NC(=O)c2cccc(NCc3nnc(-c4ccncn4)n3C)c2)c1 (centres unmarked) [drawing 589] ), measured IC50 is 1.1

Note to self: IC50 recorded for CCc1nc(CNC(=O)c2cccc(NCc3nnc(-c4ccncc4)[nH]3)c2)c(C)o1 was 8.4

Lab note: CCCn1c(CNc2cccc(C(=O)NCc3c(F)cccc3S(=O)(=O)NC)c2)nnc1-c1ccncn1 gave IC50 of 22.2
